METRIC NAME: melting point

[[record]]
compound = "CCCCc1ccc(-c2ccc(CCc3ccc(C)cc3)cc2)c(F)c1"
metric_name = "melting point"
reported_result = "41 °C"


Now turn to the next compound.
Prompt: Supply reported melting point belonging to this compound: O=c1ccn(CCO)c(C(O)c2ccccc2F)c1O (configuration not stated)
Response: 177 to 178 °C

====

Measured melting point accompanies every entry in the list below.

[[record]]
compound = "CC(=O)SC(CC(=O)c1cccc(C)c1)C(=O)O (stereo not given)"
reported_result = "74 to 76 °C"


Prompt: Supply reported melting point belonging to this compound: C=CCNc1cc(C(=O)O)cc(S(N)(=O)=O)c1-c1ccccc1
Response: 169 to 172 °C

Prompt: Supply reported melting point belonging to this compound: CCCCCCCCCCCCC(C)(C)NC(=O)Nc1ccccc1C(=O)NC1CCN(C(c2ccccc2)c2ccccc2)CC1
Response: 146 to 148 °C

Prompt: Supply reported melting point belonging to this compound: NC(=O)c1cccc(OCCCCC/C=C\c2ccc(Cl)o2)c1
Response: 53 to 56 °C
